Data origin: paper PMC12775819

Listed below: SUV at 1 h values for each entry.
assay: in vivo; conditions: male, BALB/c nu/nu, mouse, iv, 500 pmol, total radioactivity, SUV kidneys
Non-standard residues stand in square brackets, D forms with d. Residues, ends and D or L forms follow the SMILES beside them. *: point of attachment. DOTA = O=C(O)CN1CCN(CC(=O)O)CCN(CC(=O)*)CCN(CC(=O)O)CC1; EuK = O=C(O)CC[C@H](NC(=O)N[C@@H](CCCCN*)C(=O)O)C(=O)O; 2Nal = N[C@@H](Cc1ccc2ccccc2c1)C(=O)O; Trx = NC[C@H]1CC[C@H](C(=O)O)CC1
// return numeric value only (unit: SUV, not printed)

The examples below pair each entry with its known result.
compound	SUV at 1 h / SUV
O=C(O)CC[C@H](NC(=O)N[C@@H](CCCCNC(=O)[C@H](Cc1ccc2ccccc2c1)NC(=O)[C@H]1CC[C@H](CNC(=O)[C@H](Cc2c[nH]cn2)NC(=O)[C@H](CCC(=O)O)NC(=O)[C@H](Cc2c[nH]cn2)NC(=O)[C@H](CCC(=O)O)NC(=O)[C@H](Cc2c[nH]cn2)NC(=O)[C@H](CCC(=O)O)NC(=O)[C@H](Cc2c[nH]cn2)NC(=O)[C@H](CCC(=O)O)NC(=O)CN2CCN(CC(=O)O)CCN(CC(=O)O)CCN(CC(=O)O)CC2)CC1)C(=O)O)C(=O)O [PS5, EuK-NaI-ChX-(HE)4-DOTA] ({DOTA}-EHEHEHEH[Trx][2Nal]-EuK)	3.13
O=C(O)CC[C@H](NC(=O)N[C@@H](CCCCNC(=O)[C@H](Cc1c[nH]cn1)NC(=O)[C@H](Cc1c[nH]cn1)NC(=O)[C@H](Cc1c[nH]cn1)NC(=O)[C@H](Cc1ccc2ccccc2c1)NC(=O)[C@H]1CC[C@H](CNC(=O)CN2CCN(CC(=O)O)CCN(CC(=O)O)CCN(CC(=O)O)CC2)CC1)C(=O)O)C(=O)O [PS9, EuK-H3-NaI-ChX-DOTA] ({DOTA-Trx}-[2Nal]HHH-EuK)	0.98
O=C(O)CC[C@H](NC(=O)N[C@@H](CCCCNC(=O)[C@H](Cc1ccc2ccccc2c1)NC(=O)[C@H](Cc1c[nH]cn1)NC(=O)[C@H](CCC(=O)O)NC(=O)[C@H](Cc1c[nH]cn1)NC(=O)[C@H](CCC(=O)O)NC(=O)[C@H](Cc1c[nH]cn1)NC(=O)[C@H](CCC(=O)O)NC(=O)[C@H]1CC[C@H](CNC(=O)CN2CCN(CC(=O)O)CCN(CC(=O)O)CCN(CC(=O)O)CC2)CC1)C(=O)O)C(=O)O [PS2, EuK-NaI-(HE)3-ChX-DOTA] ({DOTA-Trx}-EHEHEH[2Nal]-EuK)	1.64

Now for the compound whose SUV at 1 h we want.
State the recorded SUV at 1 h for this entry: O=C(O)CC[C@H](NC(=O)N[C@@H](CCCCNC(=O)[C@H](Cc1ccc2ccccc2c1)NC(=O)[C@H](CCC(=O)O)NC(=O)[C@H](CCC(=O)O)NC(=O)[C@H](CCC(=O)O)NC(=O)[C@H]1CC[C@H](CNC(=O)CN2CCN(CC(=O)O)CCN(CC(=O)O)CCN(CC(=O)O)CC2)CC1)C(=O)O)C(=O)O [PS7, EuK-NaI-E3-ChX-DOTA] ({DOTA-Trx}-EEE[2Nal]-EuK) 1.6
